Value source: PubChem BioAssay AID1919001

Please respond with reported viability, T/C for every item in the list.
Test system: 699152-130-R-J1-PDC complex spheroid growth
Assay: Anticancer human tumor 699152-130-R-J1-PDC patient-derived pancreatic carcinoma cell line growth inhibition [AhR]
Settings: second compound 0.316 µM; first compound 0.001 µM; hits give low values

What value of measured viability, T/C is listed for Cn1ncnc1C1c2n[nH]c(=O)c3cc(F)cc(c23)NC1c1ccc(F)cc1 (stereo unspecified) + CC(CO)NC(=O)c1cc(-c2ccc(Cl)cc2)nn(-c2cnn(C)c2)c1=O ?
102%

Which viability, T/C is reported for this compound? Cn1ncnc1C1c2n[nH]c(=O)c3cc(F)cc(c23)NC1c1ccc(F)cc1 (stereo unspecified) + Cc1cncc(-c2nc(NCCc3c[nH]c4ccccc34)c3ncn(C(C)C)c3n2)c1
115%

Which viability, T/C reading was recorded for the compound CC[C@@]1(O)C(=O)OCc2c1cc1n(c2=O)Cc2cc3c(CN(C)C)c(O)ccc3nc2-1 + Cc1cncc(-c2nc(NCCc3c[nH]c4ccccc34)c3ncn(C(C)C)c3n2)c1 ?
98.4%

Quick one: viability, T/C of Cn1ncnc1C1c2n[nH]c(=O)c3cc(F)cc(c23)NC1c1ccc(F)cc1 (stereo unspecified) + Cc1ccccc1N=Nc1ccc(NC(=O)c2ccnn2C)c(C)c1 ?
96.5%

Would you mind telling me what viability, T/C value was observed for CC[C@@]1(O)C(=O)OCc2c1cc1n(c2=O)Cc2cc3c(CN(C)C)c(O)ccc3nc2-1 + CC(CO)NC(=O)c1cc(-c2ccc(Cl)cc2)nn(-c2cnn(C)c2)c1=O ?
107%

Any idea what its viability, T/C is? The compound is CC[C@@]1(O)C(=O)OCc2c1cc1n(c2=O)Cc2cc3c(CN(C)C)c(O)ccc3nc2-1 + Cc1ccccc1N=Nc1ccc(NC(=O)c2ccnn2C)c(C)c1
94%

---

System: 699152-130-R-J1-PDC complex spheroid growth
Experiment: Anticancer human tumor 699152-130-R-J1-PDC cell line growth inhibition [AhR];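 note: compound exposure lasted 7 days after spheroids had grown for 3 days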
Details: second compound 0.1 µM; first compound 0.0316 µM; hits give low values
assay.readout: viability, T/C (%)
# value in %; strip the unit string

Any idea what viability, T/C came out for Nc1ccn(C2OC(CO)C(O)C2(F)F)c(=O)n1 (stereo not drawn) + Cc1ccccc1N=Nc1ccc(NC(=O)c2ccnn2C)c(C)c1 on 699152-130-R-J1-PDC complex spheroid growth?
52.3

Value wanted: viability, T/C (699152-130-R-J1-PDC complex spheroid growth) of entry O=C(c1cc(Cc2n[nH]c(=O)c3ccccc23)ccc1F)N1CCN(C(=O)C2CC2)CC1 + CC(CO)NC(=O)c1cc(-c2ccc(Cl)cc2)nn(-c2cnn(C)c2)c1=O
85.1

Please tell me: viability, T/C of CC1COCCN1c1cc(-c2ccnn2C)c2ccnc(-c3ccn[nH]3)c2n1 (stereo not drawn) + Cc1ccccc1N=Nc1ccc(NC(=O)c2ccnn2C)c(C)c1 , system 699152-130-R-J1-PDC complex spheroid growth?
94.6

---

Test system: 699152-130-R-J1-PDC complex spheroid growth
Test: Anticancer human tumor 699152-130-R-J1-PDC cell line growth inhibition [AhR];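 note: compound exposure lasted 7 days after spheroids had grown for 3 days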
Settings: second compound 1 µM; first compound 0.01 µM; hits give low values
I'd appreciate it if you could supply viability, T/C values for the items below.
The reply should be a number in %, with the unit left off.

Which viability, T/C is reported for this molecule? CC1COCCN1c1cc(-c2ccnn2C)c2ccnc(-c3ccn[nH]3)c2n1 (stereo unspecified) + Cc1cncc(-c2nc(NCCc3c[nH]c4ccccc34)c3ncn(C(C)C)c3n2)c1
128

Fill in: viability, T/C of Cn1ncnc1C1c2n[nH]c(=O)c3cc(F)cc(c23)NC1c1ccc(F)cc1 (stereo unspecified) + CC(CO)NC(=O)c1cc(-c2ccc(Cl)cc2)nn(-c2cnn(C)c2)c1=O is ___
101

What value of viability, T/C has been recorded for this entry: Nc1ncn(C2CC(O)C(CO)O2)c(=O)n1 (stereo unspecified) + CC(CO)NC(=O)c1cc(-c2ccc(Cl)cc2)nn(-c2cnn(C)c2)c1=O
103

# lookup: viability, T/C of CC[C@@]1(O)C(=O)OCc2c1cc1n(c2=O)Cc2cc3c(CN(C)C)c(O)ccc3nc2-1 + Cc1cncc(-c2nc(NCCc3c[nH]c4ccccc34)c3ncn(C(C)C)c3n2)c1
99.4

# viability, T/C lookup, item CC1COCCN1c1cc(-c2ccnn2C)c2ccnc(-c3ccn[nH]3)c2n1 (stereo unspecified) + Cc1ccccc1N=Nc1ccc(NC(=O)c2ccnn2C)c(C)c1
110

Would you kindly share the measured viability, T/C for CC1COCCN1c1cc(-c2ccnn2C)c2ccnc(-c3ccn[nH]3)c2n1 (stereo unspecified) + CC(CO)NC(=O)c1cc(-c2ccc(Cl)cc2)nn(-c2cnn(C)c2)c1=O ?
101

---

Provide the recorded viability, T/C for the entries that follow.
Tested on: 699152-130-R-J1-PDC complex spheroid growth
Assay: Anticancer human tumor 699152-130-R-J1-PDC cell line growth inhibition [AhR];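 note: compound exposure lasted 7 days after spheroids had grown for 3 days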
Conditions: second compound 1 µM; first compound 0.316 µM; hits give low values

API: value(readout= viability, T/C, system= 699152-130-R-J1-PDC complex spheroid growth, query= COc1cccc2c1C(=O)c1c(O)c3c(c(O)c1C2=O)CC(O)(C(=O)CO)CC3OC1CC(N)C(O)C(C)O1 (configuration not stated) + CC(CO)NC(=O)c1cc(-c2ccc(Cl)cc2)nn(-c2cnn(C)c2)c1=O )
64.1%

Request: viability, T/C, test system 699152-130-R-J1-PDC complex spheroid growth, entry COc1cc(Nc2ncc3c(n2)-c2ccc(Cl)cc2C(c2c(F)cccc2OC)=NC3)ccc1C(=O)O + CC(CO)NC(=O)c1cc(-c2ccc(Cl)cc2)nn(-c2cnn(C)c2)c1=O
86%

Notebook: pull reported viability, T/C for 699152-130-R-J1-PDC complex spheroid growth, entry COc1cc(C2c3cc4c(cc3C(OC3OC5COC(C)OC5C(O)C3O)C3COC(=O)C23)OCO4)cc(OC)c1O (configuration not stated) + CC(CO)NC(=O)c1cc(-c2ccc(Cl)cc2)nn(-c2cnn(C)c2)c1=O
82.2%

Hi! What's the reported viability, T/C for CC1COCCN1c1cc(-c2ccnn2C)c2ccnc(-c3ccn[nH]3)c2n1 (configuration not stated) + CC(CO)NC(=O)c1cc(-c2ccc(Cl)cc2)nn(-c2cnn(C)c2)c1=O on 699152-130-R-J1-PDC complex spheroid growth?
72.3%

Form: Entry = COc1cccc2c1C(=O)c1c(O)c3c(c(O)c1C2=O)CC(O)(C(=O)CO)CC3OC1CC(N)C(O)C(C)O1 (configuration not stated) + Cc1cncc(-c2nc(NCCc3c[nH]c4ccccc34)c3ncn(C(C)C)c3n2)c1 | System = 699152-130-R-J1-PDC complex spheroid growth | viability, T/C = ____
52.5%

Report viability, T/C for COc1ccc([C@@H](O)c2cc(-c3ncnc4cc(N5CCOCC5)ccc34)c(F)cc2Cl)nn1 + Cc1cncc(-c2nc(NCCc3c[nH]c4ccccc34)c3ncn(C(C)C)c3n2)c1 tested on 699152-130-R-J1-PDC complex spheroid growth.
109%

// map Nc1ccccc1NC(=O)c1ccc(CNC(=O)OCc2cccnc2)cc1 + Cc1cncc(-c2nc(NCCc3c[nH]c4ccccc34)c3ncn(C(C)C)c3n2)c1 to recorded viability, T/C (system: 699152-130-R-J1-PDC complex spheroid growth)
113%

So what viability, T/C did O=C(C=Cc1cccc(S(=O)(=O)Nc2ccccc2)c1)NO + Cc1cncc(-c2nc(NCCc3c[nH]c4ccccc34)c3ncn(C(C)C)c3n2)c1 get with 699152-130-R-J1-PDC complex spheroid growth?
121%

Give viability, T/C (699152-130-R-J1-PDC complex spheroid growth) of the following molecule: Nc1ccccc1NC(=O)c1ccc(CNC(=O)OCc2cccnc2)cc1 + Cc1ccccc1N=Nc1ccc(NC(=O)c2ccnn2C)c(C)c1
107%

Item CC1(C)CCC(CN2CCN(c3ccc(C(=O)NS(=O)(=O)c4ccc(NCC5CCOCC5)c([N+](=O)[O-])c4)c(Oc4cnc5[nH]ccc5c4)c3)CC2)=C(c2ccc(Cl)cc2)C1 + Cc1ccccc1N=Nc1ccc(NC(=O)c2ccnn2C)c(C)c1 with 699152-130-R-J1-PDC complex spheroid growth - viability, T/C?
104%

Which viability, T/C is reported with 699152-130-R-J1-PDC complex spheroid growth for this entry: Nc1ccn(C2OC(CO)C(O)C2(F)F)c(=O)n1 (configuration not stated) + CC(CO)NC(=O)c1cc(-c2ccc(Cl)cc2)nn(-c2cnn(C)c2)c1=O ?
63.5%

Identify the measured viability, T/C of CC1COCCN1c1cc(C2(S(C)(=N)=O)CC2)nc(-c2ccnc3[nH]ccc23)n1 (configuration not stated) + Cc1ccccc1N=Nc1ccc(NC(=O)c2ccnn2C)c(C)c1 for 699152-130-R-J1-PDC complex spheroid growth.
99.5%
